These data points were gathered from patent US20260042731A1.

Attribute: pest or weed control at 560 g/ha
tested on: Amaranthus rudis (AMATA), tall water hemp; test: Postemergence herbicide evaluation, growth of Amaranthus rudis (AMATA); format: in vivo; settings: Amaranthus tuberculatus, post-emergence, 168 h, 560 g ae/ha, 7 DAA; read-out: Ave. AMATA, percent reduction in plant size relative to the untreated control

>  <SMILES_REPRESENTATION>
C/C(=N\OC(=O)COc1ccc(Cl)cc1Cl)c1ccncc1

>  <UNIT_TAG>
%

>  <pest or weed control at 560 g/ha>
85

$$$$
>  <SMILES_REPRESENTATION>
C/C(=N\OC(=O)COc1ccc(Cl)cc1Cl)c1cccnc1

>  <UNIT_TAG>
%

>  <pest or weed control at 560 g/ha>
94

$$$$
>  <SMILES_REPRESENTATION>
N/C(=N\OC(=O)COc1ccc(Cl)cc1Cl)c1cccnc1

>  <UNIT_TAG>
%

>  <pest or weed control at 560 g/ha>
60

$$$$
>  <SMILES_REPRESENTATION>
O=C(COc1ccc(Cl)cc1Cl)Oc1ncc(Cl)cn1

>  <UNIT_TAG>
%

>  <pest or weed control at 560 g/ha>
87.5

$$$$
>  <SMILES_REPRESENTATION>
COc1ncc(OC(=O)COc2ccc(Cl)cc2Cl)cn1

>  <UNIT_TAG>
%

>  <pest or weed control at 560 g/ha>
75

$$$$
>  <SMILES_REPRESENTATION>
O=C(COc1ccc(Cl)cc1Cl)O/N=C1\CCCc2ccccc21

>  <UNIT_TAG>
%

>  <pest or weed control at 560 g/ha>
57.5

$$$$
>  <SMILES_REPRESENTATION>
Cc1nccc(NC(=O)COc2ccc(Cl)cc2Cl)c1C

>  <UNIT_TAG>
%

>  <pest or weed control at 560 g/ha>
85

$$$$
>  <SMILES_REPRESENTATION>
C[N+](C)(C)CCOC(=O)COc1ccc(Cl)cc1Cl.[Cl-]

>  <UNIT_TAG>
%

>  <pest or weed control at 560 g/ha>
78

$$$$
>  <SMILES_REPRESENTATION>
O=C(COc1ccc(Cl)cc1Cl)Nc1c(Cl)c(F)nc(F)c1Cl

>  <UNIT_TAG>
%

>  <pest or weed control at 560 g/ha>
7.5

$$$$
>  <SMILES_REPRESENTATION>
O=C(COc1ccc(Cl)cc1Cl)O/N=C/c1ccccn1

>  <UNIT_TAG>
%

>  <pest or weed control at 560 g/ha>
90

$$$$

----------
system: weeds (ABUTH, AMATA, AMBEL, CHEAL, ERICA); assay: Postemergence herbicide evaluation, overall average % weed control across ABUTH, AMATA, AMBEL, CHEAL, ERICA; type: in vivo; conditions: post-emergence, 168 h; 280 g ae/ha, 7 DAA, average over the five weeds; read-out: Overall Ave % Weed Control
Returns 1.0 if the recorded pest or weed control at 280 g/ha is greater than or equal to 60%, and 0.0 otherwise.

>  <SMILES_REPRESENTATION>
O=C(COc1ccc(Cl)cc1Cl)ON(Cc1ccccc1)Cc1ccccc1

>  <TESTED_TARGET>
weeds (ABUTH, AMATA, AMBEL, CHEAL, ERICA)

>  <LABEL_VALUE>
0.0

$$$$
>  <SMILES_REPRESENTATION>
Cc1cc(OC(=O)COc2ccc(Cl)cc2Cl)n(C)n1

>  <TESTED_TARGET>
weeds (ABUTH, AMATA, AMBEL, CHEAL, ERICA)

>  <LABEL_VALUE>
1.0

$$$$
>  <SMILES_REPRESENTATION>
C/C(C/C(C)=N/OC(=O)COc1ccc(Cl)cc1Cl)=N\OC(=O)COc1ccc(Cl)cc1Cl

>  <TESTED_TARGET>
weeds (ABUTH, AMATA, AMBEL, CHEAL, ERICA)

>  <LABEL_VALUE>
1.0

$$$$
>  <SMILES_REPRESENTATION>
N/C(Cc1ccccc1)=N\OC(=O)COc1ccc(Cl)cc1Cl

>  <TESTED_TARGET>
weeds (ABUTH, AMATA, AMBEL, CHEAL, ERICA)

>  <LABEL_VALUE>
1.0

$$$$
